TARGET OR TEST SYSTEM: mouse LPA1 (Mus musculus)
Sequence (P61793 whole entry): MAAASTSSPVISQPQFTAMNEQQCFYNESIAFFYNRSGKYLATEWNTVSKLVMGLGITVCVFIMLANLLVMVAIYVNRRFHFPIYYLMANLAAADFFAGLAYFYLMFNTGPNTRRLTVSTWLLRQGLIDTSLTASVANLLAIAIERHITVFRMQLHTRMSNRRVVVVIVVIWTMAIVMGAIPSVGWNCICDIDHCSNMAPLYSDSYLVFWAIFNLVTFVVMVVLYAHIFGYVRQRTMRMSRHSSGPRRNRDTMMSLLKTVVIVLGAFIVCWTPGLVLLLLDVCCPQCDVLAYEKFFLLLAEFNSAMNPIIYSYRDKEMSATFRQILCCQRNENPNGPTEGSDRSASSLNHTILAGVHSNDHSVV
EXPERIMENT NOTES: GTP[γ35S] binding assay, agonist activity at LPA1
STATED CONDITIONS: transfected HEK293T cell membranes
Experimental: The appropriate receptor plasmid DNA (encoding mouse LPA1, human LPA2 or human LPA3) was mixed with equal amounts of expression plasmids (pcDNA3) encoding a mutated (C351F) rat Gi2a, cow β1, and γ2 proteins and these DNAs were used to transfect monolayers of HEK293T cells (where ‘T’ indicates expression of the SV-40 virus large T antigen) using the calcium phosphate precipitate method. After about 60 hours, cells were harvested, membranes were prepared, aliquoted and stored at −70° C. until use. […]
pEC50: −log10 of the molar value.
OBSERVABLE: pEC50

QUERY SMILES | OBSERVABLE | OPERATOR SYMBOL | OBSERVED RESULT
CCCCCCCC/C=C\CCCCCCCC(=O)N[C@H](CN)COP(=O)(O)O | pEC50 | = | 8.31
CCCCCCCC/C=C\CCCCCCCC(=O)N[C@H](C)COP(=O)(O)O | pEC50 | = | 8.47
CCCCCCCC/C=C\CCCCCCCC(=O)N[C@H](CC)COP(=O)(O)O | pEC50 | = | 7.45
CCCCCCCC/C=C\CCCCCCCC(=O)N[C@@H](C)COP(=O)(O)O | pEC50 | = | 5.54
CCCCCCCC/C=C\CCCCCCCC(=O)N[C@@H](CN)COP(=O)(O)O | pEC50 | < | 5.30

Values were extracted from patent US7820703B2.
